Recorded values, source ChEMBL document CHEMBL3217664.

I'd appreciate it if you could supply pIC50 values for the items below.
Tested on: A549
assaySummary: Cytotoxicity against human A549 cells after 96 hrs by microplate reader analysis
Type: functional, cell-based
measurementContext: A549, 96 h
Give bare numbers, as −log10 of the molar value.

                                inputsmiles  quantity  reading
0  COc1cc(C(=O)N[C@H]2CCc3c(Cl)c(OC)c(OC)c(OC)c3-c3ccc(OC)c(=O)cc32)cc(OC)c1OC     pIC50     6.91
1  COc1c(Cl)c2c(c(OC)c1OC)-c1ccc(OC)c(=O)cc1[C@@H](NC(=O)c1ccccc1N(C)C)CC2     pIC50     6.69
2  COc1c(Cl)c2c(c(OC)c1OC)-c1ccc(OC)c(=O)cc1[C@@H](NC(=O)CN(C)C)CC2     pIC50     6.80
3  COc1c(Cl)c2c(c(OC)c1OC)-c1ccc(OC)c(=O)cc1[C@@H](NC(=O)C1CCCCC1)CC2     pIC50     7.98
4  COc1c(Cl)c2c(c(OC)c1OC)-c1ccc(OC)c(=O)cc1[C@@H](NC(=O)[C@H](C)O)CC2     pIC50     7.73
5  COc1c(Cl)c2c(c(OC)c1OC)-c1ccc(OC)c(=O)cc1[C@@H](NC(=O)CO)CC2     pIC50     7.79

Each of the following entries comes with a recorded value; kindly state pIC50 for each.
1. COc1c(Cl)c2c(c(OC)c1OC)-c1ccc(OC)c(=O)cc1[C@@H](NC(=O)c1ccccc1C#N)CC2
2. COc1c(Cl)c2c(c(OC)c1OC)-c1ccc(OC)c(=O)cc1[C@@H](NC(=O)c1ccccc1F)CC2

Reply |
[6.85, 8.77]

* * *

Test system: A549
assaySummary: Cytotoxicity against human A549 cells after 96 hrs by microplate reader analysis
Type: functional, cell-based
measurementContext: A549, 96 h
quantity: pIC50
Numbers only, as −log10 of the molar value.

// solved cases for pIC50 follow
In [3]: df
Out[3]:
                                inputsmiles  quantity  reading
0  COc1c(Cl)c2c(c(OC)c1OC)-c1ccc(OC)c(=O)cc1[C@@H](NC(=O)CCCO)CC2     pIC50     6.45
1  COc1c(Cl)c2c(c(OC)c1OC)-c1ccc(OC)c(=O)cc1[C@@H](NC(=O)[C@@H](C)O)CC2     pIC50     7.71
2  COc1ccc(C(=O)N[C@H]2CCc3c(Cl)c(OC)c(OC)c(OC)c3-c3ccc(OC)c(=O)cc32)cc1     pIC50     8.42

From here, focus on the item given below.
Ask | For the molecule `COc1cc(OC)cc(C(=O)N[C@H]2CCc3c(Cl)c(OC)c(OC)c(OC)c3-c3ccc(OC)c(=O)cc32)c1` , what pIC50 is on record?
Reply | 7.85

* * *

Test system: A549
assaySummary: Cytotoxicity against human A549 cells after 96 hrs by microplate reader analysis
Type: functional, cell-based
measurementContext: A549, 96 h
Please respond with reported IC50 for every item in the list.
Give bare numbers, in nM.

Use the examples below as a reference point.
                                inputsmiles  reading
0  CCCC(=O)N[C@H]1CCc2c(Cl)c(OC)c(OC)c(OC)c2-c2ccc(OC)c(=O)cc21      9.8
1  COc1c(Cl)c2c(c(OC)c1OC)-c1ccc(OC)c(=O)cc1[C@@H](NC(=O)c1cc(F)c(F)c(F)c1)CC2      6.6
2  COc1c(Cl)c2c(c(OC)c1OC)-c1ccc(OC)c(=O)cc1[C@@H](NC(=O)c1ccccc1[N+](=O)[O-])CC2     56.6

Read the next record carefully.
Ask | Kindly state the measured IC50 obtained for `COc1c(Cl)c2c(c(OC)c1OC)-c1ccc(OC)c(=O)cc1[C@@H](N)CC2` with A549.
Reply | 241
